Target: T1, recombinant human Siglec-15 protein (Homo sapiens, UniProt Q6ZMC9)
T1 construct: purchased Bonopusbio CW70-50 ug
T1 sequence (Q6ZMC9 20-263 limits assumed): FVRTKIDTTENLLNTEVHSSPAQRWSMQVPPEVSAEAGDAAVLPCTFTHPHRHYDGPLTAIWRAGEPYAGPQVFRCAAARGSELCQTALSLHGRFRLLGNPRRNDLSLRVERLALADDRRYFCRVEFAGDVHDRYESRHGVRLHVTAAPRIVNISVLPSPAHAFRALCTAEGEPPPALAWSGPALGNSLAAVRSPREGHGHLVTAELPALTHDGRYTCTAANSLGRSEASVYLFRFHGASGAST
Test: BIACORE surface plasmon resonance binding affinity
Conditions: SPR; antibody as ligand, human Siglec-15 as analyte; 1:1 Langmuir model
metricName: kd (s⁻¹)
Your answer should be a plain number; it is taken to be in s⁻¹.

Examples with answers:
INSERT INTO assay_data (molecule, metricname, outputunit, reported) VALUES
  ('S15B1-VH3 + VL2: humanized S15B1 antibody, humanized VH3 with humanized VL2 (antibody, V domains shown) VH: QVQLVQSGAEVKKPGASVKVSCKASGYAFSSSWMNWVKQAPGQGLEWIGRIYPGHGETNYNGKFKDRATMTADTSTSTVYMELSSLRSEDTAVYFCARVDNSDPYYFDYWGQGTTVTVSS VL: DIVLTQSPASLAVSPGQRATITCRASKSVSTSGYSYMHWYQQKPGQPPKLLIYLASNLESGVPARFSGSGSGTDFTLTINPVEAEDTATYYCQHGRELPFTFGGGTKLEIK', 'kd', 's⁻¹', 0.000293),
  ('S15B1: parental mouse anti-Siglec-15 monoclonal antibody from hybridoma; VH SEQ ID NO: 18, VL SEQ ID NO: 19 (antibody, V domains shown, Clone S15B1 VH; Clone S15B1 VL) VH: QVQLQQSGPELVKPGASVKISCKASGYAFSSSWMNWVKQRPGKGLEWIGRIYPGHGETNYNGKFKDKATVTADKSSSTTYMQLSSLTSEDSAVYFCARVDNSDPYYFDYWGQGTTLTVSS VL: DIVLTQSPASLAVSLGQRATISCRASKSVSTSGYSYMHWYQQKPGQPPKLLIYLASNLESGVPARFSGSGSGTDFTLNIHPVEEEDAATYYCQHGRELPFTFGSGTKLEIK', 'kd', 's⁻¹', 0.000233),
  ('S15B1-VH2 + VL2: humanized S15B1 antibody, humanized VH2 with humanized VL2 (antibody, V domains shown) VH: QVQLVQSGAEVKKPGASVKVSCKASGYAFSSSWMNWVRQAPGQGLEWIGRIYPGHGETNYNGKFKDRVTMTADTSTSTVYMELSSLRSEDTAVYFCARVDNSDPYYFDYWGQGTTVTVSS VL: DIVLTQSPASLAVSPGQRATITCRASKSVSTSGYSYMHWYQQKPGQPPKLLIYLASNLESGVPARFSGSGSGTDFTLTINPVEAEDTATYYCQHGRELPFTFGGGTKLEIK', 'kd', 's⁻¹', 0.000326);

# next molecule below
// fetch kd given entry S15B1-VH3 + VL1: humanized S15B1 antibody, humanized VH3 with humanized VL1 (antibody, V domains shown) VH: QVQLVQSGAEVKKPGASVKVSCKASGYAFSSSWMNWVKQAPGQGLEWIGRIYPGHGETNYNGKFKDRATMTADTSTSTVYMELSSLRSEDTAVYFCARVDNSDPYYFDYWGQGTTVTVSS VL: DIVLTQSPASLAVSPGQRATITCRASKSVSTSGYSYMHWYQQKPGQPPKLLIYLASNLESGVPARFSGSGSGTDFTLTINPVEAEDTANYYCQHGRELPFTFGGGTKLEIK 0.000257
